This collection of values is drawn from paper PMC10704437.

biological target: Aβ42 monomer (Homo sapiens); construct: Small red spheres mark the Aβ42 peptide C-terminal residue, A42; purchased Sigma-Aldrich Corp; test: Sterol binding to Aβ42, equilibrium DHE fluorescence titrations
property label: pKd
Numbers only, as −log10 of the molar value.

# get_value(readout='pKd', item= CC(C)CCC[C@@H](C)[C@H]1CC[C@H]2[C@@H]3CC=C4C[C@@H](OS(=O)(=O)O)CC[C@]4(C)[C@H]3CC[C@]12C [CS, cholesterol 3-sulfate] )
7.44

###

target: Aβ42 (Homo sapiens, UniProt P05067); construct: Small red spheres mark the Aβ42 peptide C-terminal residue, A42; purchased Sigma-Aldrich Corp; test: Sterol binding to Aβ42, pre-steady-state stopped-flow fluorescence; details: ratio of rate constants; read-out: koff/kon
Sequence (P05067 672-713 limits assumed): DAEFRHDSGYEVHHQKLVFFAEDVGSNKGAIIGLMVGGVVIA
So I've got a bunch of molecules here, and I need their Kd values.
One number for each entry, in µM.

CC(C)[C@@H](C)/C=C/[C@@H](C)[C@H]1CC[C@H]2C3=CC=C4C[C@@H](O)CC[C@]4(C)C3=CC[C@]12C [DHE, dehydroergosterol, reference compound] : 0.017

Consider the record given below.
Query Kd on Aβ42 (Homo sapiens, UniProt P05067) for CC(C)CCC[C@@H](C)[C@H]1CC[C@H]2[C@@H]3CC=C4C[C@@H](O)CC[C@]4(C)[C@H]3CC[C@]12C [CH, cholesterol]
0.12
